# Test system: COLO 205 colon
# Assay: NCI-60 one-dose screen, 48 h
# Protocol conditions: 10 µM unless noted
The panel holds about 83,000 compounds, 20% with a hit somewhere; the sample as a whole holds those more often. Activity calls are given as the source filed them. How the source made its calls: active means growth percent below 10; inactive means the rest.
Write down the outcome that applies. Available outcomes: active, inactive

Q) Status in this test for "CCCCCCCCCCCCCCNc1nc(CO)ncc1-c1ccc(C(F)(F)F)cc1" ?
A) inactive

Q) Name the outcome recorded for "COc1ccc(-n2ncc3c4nc(OC)c(S(=O)(=O)c5ccccc5)cc4ccc32)cc1" in the assay.
A) inactive

Q) Outcome logged for "Cc1ccc(-c2c3c(N)c4c(nc3nc3c2c(C)nn3-c2ccccc2)CCCC4)cc1" in this assay:
A) inactive

Q) Recorded call for CN1CCc2cccc3c2C1Cc1ccc(O)c(O)c1-3 (configuration not stated) ?
A) inactive

Q) # lookup: test call for "COc1ccc(C(=O)COc2cccc(/C=C3\CSc4ccc(C)cc4C3=O)c2)cc1"
A) inactive

Q) Query: recorded result category for "COc1ccc2nc(-n3nc(C)cc3C)c(-n3nc(C)cc3C)nc2c1" in this test
A) inactive

Q) How did this test come out for "COc1cc2cc(Oc3ccc(NC(=O)Nc4cccc(C(F)(F)F)c4)cc3)c(C)nc2cc1OCCN1CCCCC1" ?
A) active

----------
# System: A549/ATCC NSCLC
# Assay: NCI-60 one-dose screen, 48 h (100 = growth as untreated, 0 = no growth, -100 = all killed)
# Protocol conditions: 10 µM unless noted
This is part of a sample that, as a whole, favours compounds with a hit. Of some 83,000 tested, about 20% had one in any assay.
Reported metric: growth (%)
Give a bare numeral; the unit % is implied.

Q) # query: growth of entry CC(=O)N(CC(O)CO)c1c(I)c(C(=O)NCCO)c(I)c(C(=O)NCC(O)CO)c1I (stereo not drawn)
A) 100

Q) Param item = O=C1OCC2=C1C(c1ccc3c(c1)OCO3)CC(=O)N2c1cccc(Cl)c1 (stereo not drawn) ; retrieve measured growth.
A) 94.6

Q) Consider the compound shown here: "O=[N+]([O-])c1ccc(O)c2ncccc12" What is its recorded growth?
A) 46.6

----------
# Test system: ACHN renal
# Assay: NCI-60 one-dose screen, 48 h
# Protocol conditions: 10 µM unless noted
Compounds without any hit were thinned out: in the full panel of roughly 83,000, 20% have a hit. Calls of active or inactive are those of the source. The calls were made as follows: active = growth percent below 10; inactive = the rest.
Result category, one only: Y for active, N for inactive

Q) Fill in: this test's call for "COc1cc(CNCCCN2C(=O)c3ccc4c5c(ccc(c35)C2=O)C(=O)N(CCCNCc2cc(OC)c(OC)c(OC)c2)C4=O)cc(OC)c1OC" is ___
A) Y

Q) Hi, sorry to bother you, what did the test record for "N#Cc1ccc(C(F)(F)F)nc1N1CCC(C(=O)Nc2ccc(Cl)cc2)CC1" ?
A) N

Q) For CC1CCCCN1S(=O)(=O)c1ccc(CN=C=S)cc1 (configuration not stated) , which call appears in the assay record?
A) Y

Q) Tell me the assay call for "COc1cccc2c(=O)c3c(sc12)c(NCCN(C)C)nc1ccccc13" please.
A) Y

Q) Entry "Cn1c2ccccc2c2nn(C(=O)c3ccccc3)c(=O)nc21" : call = ?
A) N

Q) Please state the recorded outcome for this compound: "COc1ccc(/C=C2\CN(Cc3cn(CCCNc4ccnc5cc(Cl)ccc45)nn3)C/C(=C\c3ccc(OC)c(OC)c3)C2=O)cc1OC"
A) Y

Q) Status in this test for "NC(=S)N/N=C1\c2ccccc2-c2c(F)c(F)c(F)c(F)c21" ?
A) N

Q) What classification did "COc1cccc(OC(=O)c2ccccc2)c1OC(=O)c1ccccc1" end up with in this test?
A) N

Q) Dear all, I need the recorded test outcome for "Cc1ccc2nc(NC(=O)CSC(=S)N3CCN(C)CC3)sc2c1" , thank you.
A) N

Q) Query: recorded result category for "COc1ccc(-n2ncc3c4nc(OC)c(S(=O)(=O)c5ccccc5)cc4ccc32)cc1" in this test
A) N

Q) // return assay outcome for "COc1ccc(-c2csc3c2-n2cccc2C3=O)cc1O"
A) N

Q) Which outcome did this test record for the compound "c1ccc(-c2n(Cc3ccc4ccccc4n3)c3ccccc3[n+]2Cc2ccc3ccccc3n2)cc1" ?
A) N

Q) // outcome(item) with item = "CCN1CCN(c2nc3ccccc3c3c(=O)c4cc(F)ccc4sc23)CC1"
A) N

Q) // return assay outcome for "O=C1c2cc(S(=O)(=O)O)ccc2C(=O)c2c1cccc2[N+](=O)[O-]"
A) N

Q) // return assay outcome for "Cn1c2c(cc(S(=O)(=O)c3ccccc3)c1=O)CCc1c-2cnn1-c1ccccc1Cl"
A) Y

Q) Could you kindly confirm the outcome this assay logged for "COc1ccc(-c2c3c(N)c4c(nc3nc3c2c(C)nn3-c2ccccc2)CCCC4)cc1" ?
A) N

Q) What did this assay record as the result for "NC(=O)c1nc2c([nH]c1=O)CCCC2" ?
A) N

----------
# Test system: NCI-H322M lung
# Assay: NCI-60 one-dose screen, 48 h (100 = growth as untreated, 0 = no growth, -100 = all killed)
# Protocol conditions: 10 µM unless noted
Compounds without any hit were thinned out: in the full panel of roughly 83,000, 20% have a hit. The source made the active and inactive calls. How the source made its calls: active means growth percent below 10; inactive means the rest.
Task for the reader: assign each of the following compounds its reported growth.

Q) Fill in the recorded growth for this compound, with NCI-H322M lung as test system: "O=C(Nc1nc2ccccc2[nH]1)C(=O)Nc1nc2ccccc2[nH]1"
A) 91.8% (inactive)

Q) Recall the recorded growth for "O=C(COc1cccc(/C=C2\COc3ccccc3C2=O)c1)c1ccccc1" with NCI-H322M lung and state it.
A) 95.3% (inactive)

Q) Checklist item: growth tested on NCI-H322M lung, entry "COc1cc(-c2nc(SC(C)C)nc(Nc3cccc(C)c3)c2C#N)cc(OC)c1OC" , value?
A) 107% (inactive)

Q) Any idea what growth came out for "CN1CCn2c(c(Sc3ccc(C(=O)NO)cc3)c3ccccc32)C1=O" on NCI-H322M lung?
A) 53% (inactive)

Q) Item CC1SC(c2cccc(Oc3ccccc3)c2)N(CCc2cccs2)C1=O (stereo not drawn) with NCI-H322M lung - growth?
A) 4.21% (active)

Q) Can you look up growth on NCI-H322M lung for "O=S(=O)(Nc1ncccn1)c1ccc(Nc2ccc3nnc(-c4ccncc4)n3n2)cc1" ?
A) 112% (inactive)

Q) Any idea what growth came out for "CCCCNNC(=O)c1ccc(Br)cc1" on NCI-H322M lung?
A) 59.3% (inactive)

Q) Provide the documented growth with NCI-H322M lung as the system for O=C1c2ccccc2-c2cn(Cc3ccccc3)c3cccc(c23)C1c1cccnc1 (stereo not drawn)
A) 54% (inactive)

Q) State its growth on NCI-H322M lung: "COc1ccc2c(c1)c(=O)oc1c(C)c(OCC(C)=O)ccc12"
A) 105% (inactive)

Q) Form field - read-out: growth; system: NCI-H322M lung; submitted item: "O=[N+]([O-])c1ccc2nc(N/N=C/c3ccc(O)cc3)sc2c1"
A) 58.8% (inactive)

Q) Reported growth for NCI-H322M lung, given O=C1CCC(N2C(=O)c3cccc(NCCOCCOCCNC(=O)c4cc5c(o4)C(=O)c4ccccc4C5=O)c3C2=O)C(=O)N1 (stereo not drawn) ?
A) -76.6% (active)

Q) # value lookup — system NCI-H322M lung, readout growth, item CCC(C)Oc1cc(/C=N/NC(=O)c2cnn3c2NC(c2ccccc2)C3)ccc1OC (stereo not drawn)
A) 45% (inactive)

Q) Missing value: growth, NCI-H322M lung, entry "Cc1ccccc1-c1cc(-c2ccc(Br)s2)[nH]c(=O)c1C#N" . Fill in?
A) 97.9% (inactive)

Q) // map "NC(=O)c1nc2c([nH]c1=O)CCCC2" to recorded growth (system: NCI-H322M lung)
A) 120% (inactive)

Q) Provide the documented growth with NCI-H322M lung as the system for "O=C1C(OCCOc2ccccc2)=C(OCCOc2ccccc2)C(=O)c2ccccc21"
A) 60.3% (inactive)

Q) # query: growth | item "C[C@@H](Oc1cc(-c2cnn(C3CC4(CNC4)C3)c2)cnc1N)c1c(Cl)ccc(F)c1Cl" | system: NCI-H322M lung
A) 72.1% (inactive)

Q) Which measured growth belongs to "COC(=O)c1c2c(c(C)[n+]([O-])c1C)C(=O)C=C(NCc1ccc(F)c(Cl)c1)C2=O" , tested on NCI-H322M lung?
A) -38.9% (active)

Q) Return growth measured with NCI-H322M lung given this compound: "C[C@]1(CO)C[C@@H](O)C[C@]2(C)[C@@H]1CC[C@@]13C[C@@H]4[C@@H](C[C@H]12)[C@]4(C)C3"
A) 103% (inactive)

Q) Given the entry "C[C@@H](Oc1cc(-c2cnn(C3CC4(CCNCC4)C3)c2)cnc1N)c1c(F)ccc(Cl)c1Cl" , what growth was observed with NCI-H322M lung?
A) 44.4% (inactive)

Q) Which measured growth belongs to CCOC(=O)C1=C(C)N2C(=NC3=C(CCCC/C3=C\c3cc(OC)c(OC)c(OC)c3)C2c2cc(OC)c(OC)c(OC)c2)S1 (stereo not drawn) , tested on NCI-H322M lung?
A) 96.5% (inactive)

Q) Request body: readout growth, system NCI-H322M lung, query "CN1CCc2c(c3ccccc3c3ccccc23)C1" . Return the value.
A) 51.4% (inactive)

Q) Short answer please: growth, NCI-H322M lung, entry "CSC1=CC(=O)c2ccccc2C1=O"
A) 107% (inactive)

Q) What is its growth for NCI-H322M lung? Entry: COc1cc(C2C3=C(COC3=O)N(CCO)c3cc4c(cc32)OCO4)cc(OC)c1O (stereo not drawn)
A) 52.5% (inactive)

Q) Checklist item: growth tested on NCI-H322M lung, entry "COC(=O)c1cc(-c2ccc(C)cc2)n(C(=O)CSc2nc3sc(C(N)=O)c(C)c3c(=O)n2Cc2ccccc2)n1" , value?
A) 129% (inactive)

Q) What value of growth on NCI-H322M lung does "O=C1Nc2ccc(Cl)cc2/C1=N/N=C(c1ccccc1)c1ccccc1" have?
A) 98.1% (inactive)

Q) Please state recorded growth (tested on NCI-H322M lung) of CCCCOC(=O)C1OC(Oc2ccc3c(C)cc(=O)oc3c2)[C@@H](OC(C)=O)C(OC(C)=O)C1OC(C)=O (stereo partly drawn)
A) 104% (inactive)

Q) Find growth (NCI-H322M lung) for the entry "Clc1ccc2c(c1)C[C@H]1C[C@@H](c3cccs3)N2O1"
A) 99.7% (inactive)

Q) Provide the documented growth with NCI-H322M lung as the system for O=C1OCC2=C1C(c1ccc3c(c1)OCO3)CC(=O)N2c1cccc(Cl)c1 (stereo not drawn)
A) 94.1% (inactive)

Q) Enter reported growth observed with NCI-H322M lung for "Cc1c(C(=O)Nc2nc(-c3ccccc3)cs2)nnn1-c1cccc2ccccc12"
A) 84.6% [50 µM] (inactive)

Q) Query the reported growth for NCI-H322M lung; item: "Cc1c(C(=O)Nc2nc(-c3ccccc3)cs2)nnn1-c1ccccc1Br"
A) 79.5% [50 µM] (inactive)

Q) Return growth measured with NCI-H322M lung given this compound: "Clc1ccccc1Nc1ccc2nnc(-c3ccncc3)n2n1"
A) 102% (inactive)

Q) What measured growth is associated with COc1ccc(/C=N/OCC(O)CN2CCC(O)CC2)cc1OC1CCCC1 (stereo not drawn) on NCI-H322M lung?
A) 108% (inactive)

Q) Under NCI-H322M lung: growth value of "CCN1CCN(C(=S)SCC(=O)Nc2nc3ccc(OC)cc3s2)CC1" ?
A) 92.3% (inactive)
